system: Escherichia coli 255/S-1; assay: antibacterial activity, MIC by standard serial dilution method; type: cell-based; details: 255/S1
measured attribute: MIC
Kindly format the answer as number then unit.

INSERT INTO measurements (compound, reported) VALUES
  ('Nc1nc(/C(=N/O)C(=O)NC2C(=O)N3C(C(=O)O)=C(SCC4CCCCO4)CS[C@H]23)cs1 (some centres unmarked) [Compound No. 25]', '12.5 µg/mL'),
  ('CO/N=C(\C(=O)NC1C(=O)N2C(C(=O)O)=C(SCC3COCOC3)CS[C@H]12)c1csc(N)n1 (some centres unmarked) [Compound No. 33]', '0.78 µg/mL'),
  ('Nc1nc(/C(=N/O)C(=O)NC2C(=O)N3C(C(=O)O)=C(SCC4CCCO4)CS[C@H]23)cs1 (some centres unmarked) [Compound No. 11]', '0.78 µg/mL'),
  ('CO/N=C(\C(=O)NC1C(=O)N2C(C(=O)O)=C(SCC3CCOC(C)(C)O3)CS[C@H]12)c1csc(N)n1 (some centres unmarked) [Compound No. 9]', '6.25 µg/mL');

Next compound, please.
Exam item: Kindly state the measured MIC obtained for Nc1nc(/C(=N/O)C(=O)NC2C(=O)N3C(C(=O)O)=C(SCC4COCO4)CSC23)cs1 (centres unmarked) [Compound No. 35] with Escherichia coli 255/S-1.
Marked response: 0.39 µg/mL
